Entry source: a melting point compilation (Tetko et al.; mined from patent text by program, amines drawn as free bases though some values may be those of a salt)

Catalogue of compounds with associated melting point

compound	property_measured	endpoint_result
NC(=O)COc1cccc(CCNS(=O)(=O)c2ccc(Cl)cc2)c1	melting point	113 °C

The compound listed as "Cc1ccc(C(=O)Nc2ccc3ccc(Cl)nc3n2)nn1" has a reported melting point of 258 °C

Notebook: "CCCCCOc1ccc2cc(CCC(N)(CO)CO)ccc2c1" , melting point read as 106 to 109 °C

The compound "O=C(Nc1cccnn1)N1CCN(c2cc(-c3ccc(F)cc3)ncn2)CC1" showed melting point equal to 254 to 255 °C

Entry "CCOc1cc(-c2ncc3[nH]c4ccc(OCc5ccccc5)cc4c3c2COC)no1" , melting point reported as 139 to 140 °C

====

Listed here are molecules together with their documented melting point.

Worked cases, answers included:
molecule	melting point
Cc1ccc2c(c1)N(CC(=O)c1ccco1)C(=O)C(NC(=O)Nc1cccc(C(=O)O)c1)CN2C(=O)C(C)(C)C (configuration not stated)	202 to 204 °C
CC(=O)OCc1c2ccccc2cc2ccccc12	110 to 112 °C
CC(=O)OC[C@](O)(CO)c1ccc(F)cc1F	52 to 53 °C
CCCCCCCCCCC1(CCCCCCCCCC)c2cc(-c3cccs3)ccc2-c2ccc(-c3cccs3)cc21	59.9 to 60.8 °C
CCCCCn1c(C)c(C(=O)c2ccc(Cl)c3ccccc23)c2cccc(OC)c21	112 °C

Next molecule, melting point to be filled in.
According to the records, this molecule CCNCC1CCN(c2c(F)cc3c(=O)c(C(=O)O)cn(C4CCC4)c3c2F)C1 (configuration not stated) displays melting point of 223 to 225 °C

====

Recorded melting point for the following compounds

compound	property_measured	endpoint_result
COc1cc2c(cc1OC)C(NCC(=O)O)CC2 (stereo not drawn)	melting point	213 to 216 °C

The compound listed as "O=C1C(=Cc2ccc([N+](=O)[O-])s2)CCc2cc(OCCn3ccnc3)ccc21" shows melting point equal to > 240 °C

Documented melting point of CS(=O)(=O)Nc1cc(C(O)CNC2CCN(c3ccc(C=C4SC(=O)NC4=O)cc3F)CC2)ccc1O (stereo not drawn) : > 225 °C

====

Items are presented alongside their recorded melting point.

Example results:
compound	melting point
CP(C)(=O)COc1cc(Cl)c(C=O)c(Cl)c1	136 to 139 °C
CNC(=O)n1cc2c(n1)-c1ccc(Cl)cc1C(c1ccccc1F)=NC2	192 to 193 °C
CCCCC(=O)c1c(-c2ccc3cc(OC(Cc4ccccc4)C(=O)O)ccc3c2)oc2ccccc12 (stereo unspecified)	144 to 145 °C
CNC(=O)CC1(CC(=O)O)c2ccccc2C(=O)c2ccccc21	238 to 239 °C
O=S(=O)(c1ccc(Cl)cc1)C(c1cccc(CCc2ccccn2)n1)c1cc(F)ccc1F (stereo unspecified)	88 to 89 °C
CSc1nc(N)c(C(N)=S)s1	192 to 195 °C
COc1ccc(C(=O)N(C(=O)c2ccc(OC)cc2)c2nc3ccc([N+](=O)[O-])cc3c(NCc3ccccc3)c2C#N)cc1	145 to 148 °C
Cc1ccc(S(=O)(=O)n2c(I)cc3cccnc32)cc1	105 to 107 °C

The compound identified as "O=C(O)c1c(-c2cccc(Cl)c2)csc1N1C(=O)c2ccccc2C1=O" registered its melting point at 203 to 204 °C

So for "CCC(CC)Oc1nn(C)c(=O)c2c1ccn2-c1c(C)cc(C)cc1C" , the logged melting point turned out to be 87 to 88 °C

compound "Cn1nc(C(F)(F)F)cc1Oc1cc(C#N)cc(OCc2ccc(F)cc2F)n1" , melting point observed: 109 °C

====

property_measured: melting point

molecule	property_measured	endpoint_result
Cc1cccc(C)c1NC(=O)N=C1N(C)CC(=O)N1C	melting point	116 to 118 °C
COc1cc(-c2nc3ncccc3o2)cc(C(C)(C)C)c1	melting point	119 to 121 °C
O=C1c2ccc(OC3CCCCC3)cc2CCC1CN1CCC(O)(c2ccccc2)CC1 (stereo not given)	melting point	175 to 177 °C

response.value for "CC(C)(C)Nc1nc(C(F)(F)F)c(C(=O)Cl)o1" (field: melting point) = 52 to 60 °C

Lab note: "O=C(Nc1cccnn1)N1CCN(c2ccnc(-c3ccc(F)cc3F)c2)CC1" gave melting point of 189 to 190 °C

Kindly note the recorded melting point for "CCCc1nc(NCc2ccco2)nc(Nc2cccc(C(F)(F)F)c2)n1" , which is 110 to 112 °C

// recorded melting point for "Cn1cc(-c2ccccc2)c(=O)c(S(=O)(=O)c2ccccc2)c1" : 218 to 220 °C

For record "Nc1ccc(Oc2ccc(Oc3ccc(Oc4ccc(Oc5ccc(N)cc5)cc4)cc3)cc2)cc1" the listed melting point is 170 °C

Field melting point (entry "CCS(=O)(=O)Nc1cnc(N2CCC(C(=O)O)CC2)nc1NCc1ccccc1" ) reads 205 °C

// melting point value for CCS(=O)(=O)c1cc(C(=O)NCC(Cl)CCCCl)c(OC)cc1N (stereo not given) : 109 °C

====

Documented melting point across a set of compounds

Some compounds with known melting point results, for comparison:
compound	endpoint_result
COC(=O)c1cc(Oc2c(Cl)cc(Cl)cc2Cl)ccc1[N+](=O)[O-]	101 to 103 °C
Cc1c(O)cc2c(c1C)N(C=O)C(C)(C)C2	202 to 204 °C
O=C1N(Cc2ccc(-c3ccccn3)cc2)c2ccccc2C12COc1cc3c(cc12)CCO3 (stereo not drawn)	217 to 219 °C
CCCCCC(=O)NC[C@H](O)CC(=O)NN	172 °C
O=C(O)c1ccc(CCCOCCCCCCBr)s1	93 to 95 °C

Per the records, this compound ( "NS(=O)(=O)Cc1cccc2c1C(=O)OC2" ) has melting point equal to 192 to 195 °C

Given item "CCOC(=O)c1cn(C)cc(-c2cccc(C(F)(F)F)c2)c1=O" , the value recorded as its melting point is 151 to 152 °C

Kindly note the recorded melting point for O=C(O)C1CCc2c(oc3cccc(Cl)c23)C1 (stereo not drawn) , which is 189 to 190 °C

====

This listing pairs compounds with measured melting point.

compound	melting point
CC(C)C(NC(=O)c1ccc(C(=O)NCc2ccc(N)cc2)cc1)C(=O)N1CCCC1C(=O)NC(C(=O)C(F)(F)F)C(C)C (mixture of isomers)	90 to 92 °C

Given item "CCCC(=O)Oc1ccc2nc(S(N)(=O)=O)sc2c1" , the value recorded as its melting point is 122 to 123 °C

The compound listed as "Clc1ccc([C@H]2CC[C@H](CBr)CC2)cc1" shows melting point equal to 36 to 38 °C

Looking up "c1cncc(-c2ccc3c(c2)OCO3)c1" , I found its melting point recorded as 92 to 92.5 °C

====

property_measured: melting point

Illustrative cases are given below, each with its answer.
compound	endpoint_result
OC(c1ccc(F)cc1)(c1ccc(F)cc1)c1nccn1Cc1ccccc1	176 to 177 °C
Cn1cncc1C(c1ccc(Cl)cc1)c1ccc2c(c1)C(c1cccc(Cl)c1)SCC(=O)N2 (configuration not stated)	187 °C
CCCCCCCC(=O)OC(C)OC1=C(C(=O)Nc2ccccn2)N(C)S(=O)(=O)c2ccccc21 (configuration not stated)	90 to 91 °C
Cc1cccc(NC(=O)NCC(=O)N(c2ccccc2)C(C(=O)OC(C)(C)C)c2ccc(Cl)c(Cl)c2)c1 (racemic)	176 °C
CN1C(=O)CN(c2ccc(OCc3ccccc3)cc2)NC1=O	224 to 227 °C
COc1ccc2c(c1OC)CCC(NC(=O)CCCCC(=O)NCCc1ccccc1)C2 (configuration not stated)	191 to 193 °C

According to the records, this compound "CNC(=O)c1cccc(NC(=O)Cc2cccc3ccccc23)c1" displays melting point of 201 to 202 °C

So, CCCOC1(C=CCCCCC(=O)O)C=CC=CC1 (configuration not stated) ? Its melting point was 52 to 53 °C

Per the record, Cc1ccc2c(c1)C=Cc1oc(C)nc1C2c1cn(C)c(=O)[nH]c1=S (configuration not stated) has melting point of 146 to 150 °C

The value of melting point measured for the compound "CC(=O)c1c(N)c(-c2ccccc2)n(C)c1C" turned out to be 124 to 126 °C

Input "COc1ccc(C2(C#N)CCC(=O)CC2)cc1OC1CCCC1" . Output melting point: 111 to 112 °C

melting point measured on "CCCc1nc2c(N)nc3ccc(-c4cccc(NS(C)(=O)=O)c4)cc3c2s1" = 244 to 246 °C

====

property_measured: melting point (°C)

molecule	unit_text	endpoint_result
CNC(=O)c1ccccc1CC(O)(CCN(C)C)c1ccccc1 (stereo not given)	°C	140
COc1ccc(C[C@H](NC(=O)OCc2ccccc2)C(=O)CCl)cc1	°C	107

====

property_measured: melting point

Some solved cases for reference:
molecule	endpoint_result
CC(C)OCC(O)CN1CCC2(CC1)CSC1=C(O2)c2ccccc2C(=O)C1=O (stereo not given)	97 to 99 °C
CN1CCC(OC2c3ccccc3CCn3c2nc(-c2ccccc2)c3CO)CC1 (stereo not given)	120 °C
ClC(Cl)(Cl)c1nc2ncccc2[nH]1	210 °C
CCOC(=O)c1ncn(Cc2ccccc2)c1OC	127 to 128 °C
CCOc1cc(OCC)c(C=NNC(=N)NCc2ccccc2)c(OCC)c1	140 to 141 °C
CN1C(=O)C(c2ccc(OC(F)F)cc2)(C23CC4CC(CC(C4)C2)C3)N=C1N (stereo not given)	216 to 218 °C

For "CC(C)(C)C(=O)NCc1cc(-c2ccc(Cl)c(Cl)c2)n(Cc2ccc(Cl)c(Cl)c2)n1" the molecule record lists melting point as 56.5 °C
